Ref: paper PMC9883013

molecular target: wild-type human YFP-tagged SERT (Homo sapiens, UniProt P31645); test: Inhibition of SERT-mediated [3H]5-HT uptake in HEK293 cells stably expressing YFP-SERT; type: cell-based; design: expressed in transfected cells; conditions: low 5-HT concentration (0.1 µM); read-out: IC50 value in the uptake assay
Sequence (P31645 whole entry): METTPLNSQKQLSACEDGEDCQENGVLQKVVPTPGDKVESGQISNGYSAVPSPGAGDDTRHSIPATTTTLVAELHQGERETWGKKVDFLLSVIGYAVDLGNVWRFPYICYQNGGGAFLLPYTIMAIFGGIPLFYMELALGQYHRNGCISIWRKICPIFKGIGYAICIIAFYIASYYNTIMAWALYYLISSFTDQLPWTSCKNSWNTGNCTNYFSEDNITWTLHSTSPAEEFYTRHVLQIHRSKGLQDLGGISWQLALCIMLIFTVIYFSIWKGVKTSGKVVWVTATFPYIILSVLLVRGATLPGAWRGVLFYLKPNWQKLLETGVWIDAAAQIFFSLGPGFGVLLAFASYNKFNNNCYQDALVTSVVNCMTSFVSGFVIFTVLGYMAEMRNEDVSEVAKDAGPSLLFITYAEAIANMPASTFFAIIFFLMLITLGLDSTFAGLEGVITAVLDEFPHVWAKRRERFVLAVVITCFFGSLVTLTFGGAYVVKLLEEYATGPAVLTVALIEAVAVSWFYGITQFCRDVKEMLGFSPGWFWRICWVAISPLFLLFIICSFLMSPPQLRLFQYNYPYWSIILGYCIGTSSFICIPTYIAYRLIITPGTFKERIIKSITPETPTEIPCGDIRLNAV
measurement-kind: IC50

The compound listed as O=CNC(Cc1ccc2c(c1)OCO2)Cc1ccc2c(c1)OCO2 has a reported IC50 of ~500 µM

###

biological target: wild-type human YFP-tagged SERT (Homo sapiens); test: Inhibition of SERT-mediated [3H]5-HT uptake in HEK293 cells stably expressing YFP-SERT; type: cell-based; parameters: expressed in transfected cells; settings: IC50(0.1), inhibition of [3H]5-HT uptake, 0.1 µM [3H]5-HT, absence of additional unlabeled 5-HT
measurement-kind: IC50

The compound listed as O=CNC(Cc1ccc2c(c1)OCO2)Cc1ccc2c(c1)OCO2 [ECSI#6] has a reported IC50 of 441 µM
